From: paper PMC8014892

protocol details: Permeation over multiple compartments (one donor, four acceptor droplets in series)
Type: in vitro ADME
assay context: not told; pH 6, one donor to four acceptor droplets, 100% DOPC, eqs 5–7 and 3, N = 12 droplet networks
value type: Papp at 50 µM (nm/s)
Answers are plain numbers, in nm/s.

Q: May I ask what Papp at 50 µM has been recorded for `O=C1OC2(c3ccc(O)cc3Oc3cc(O)ccc32)c2ccccc21` ?
A: 2000

====

protocol details: Permeation over multiple compartments (one donor, four acceptor droplets in series)
Format: in vitro ADME
assay context: not told; pH 7.4, one donor to four acceptor droplets, eqs 5–7 and 3
Text: For several acceptor droplets in series, the numerical solutions of a differential equation system according to eqs 5 to 7 were fitted to the normalized fluorescence data of donor and acceptor droplets. […] W(n) is the fluorescence in the water phase of droplet n, k is the mass transfer rate constant (the fit parameter), and N is the total number of donor and acceptor droplets. […]
value type: Papp at 50 µM (×10⁻⁶ cm/s)
Numbers only, in ×10⁻⁶ cm/s.

Q: May I ask what Papp at 50 µM has been recorded for `O=C1OC2(c3ccc(O)cc3Oc3cc(O)ccc32)c2ccccc21` ?
A: 19
